assay-notes: Liver microsomal stability, mouse
assay-setup: mouse, liver microsomes, pH 7.4
Please respond with reported microsomal CLint at 1 μM for every item in the list.

The recorded microsomal CLint at 1 μM for entry O=S(=O)(c1ccc2ccccc2c1)n1c(-c2cccc3ccccc23)nc2ccc(Cl)cc21 equals 104 µL/min/mg

The recorded microsomal CLint at 1 μM for entry O=C(c1ccc(Cl)cc1Cl)c1c[nH]c2ccc(Cl)cc12 equals 49.1 µL/min/mg

The recorded microsomal CLint at 1 μM for entry O=S(=O)(c1ccc(C(F)(F)F)cc1)n1c(-c2cccc3ccccc23)nc2ccc(Cl)cc21 equals 127 µL/min/mg

The recorded microsomal CLint at 1 μM for entry O=C(c1ccc(F)c(F)c1)n1c(-c2ccc(-c3ccccc3)cc2)nc2ccc(Cl)cc21 equals 20 µL/min/mg

The recorded microsomal CLint at 1 μM for entry O=C(c1ccc(SC(F)(F)F)cc1)c1c[nH]c2ccc(Cl)cc12 equals 100 µL/min/mg

The recorded microsomal CLint at 1 μM for entry O=C(c1cccc(Cl)c1Cl)c1c[nH]c2ccc(Cl)cc12 equals 40.9 µL/min/mg

The recorded microsomal CLint at 1 μM for entry O=S(=O)(c1ccc(C(F)(F)F)cc1)n1c(-c2cccc3ccccc23)nc2cc(Cl)ccc21 equals 115 µL/min/mg

The recorded microsomal CLint at 1 μM for entry O=C(C1CC1)n1c(-c2cccc3ccccc23)nc2ccc(Cl)cc21 equals 71.9 µL/min/mg

The recorded microsomal CLint at 1 μM for entry Clc1ccc2[nH]c(-c3cccc4ccccc34)cc2c1 equals 114 µL/min/mg

The recorded microsomal CLint at 1 μM for entry O=C(c1ccc(F)c(F)c1)n1c(-c2cccc3ccccc23)cc2cc(Cl)ccc21 equals 34.8 µL/min/mg

The recorded microsomal CLint at 1 μM for entry CN(C)c1ccc(C(=O)c2c[nH]c3ccc(Cl)cc23)cc1 equals 38.2 µL/min/mg

The recorded microsomal CLint at 1 μM for entry O=C(c1ccccc1)c1c[nH]c2ccc(Cl)cc12 equals 66.1 µL/min/mg

The recorded microsomal CLint at 1 μM for entry O=C(C1CC1)n1c(-c2cccc3ccccc23)cc2cc(Cl)ccc21 equals 87.1 µL/min/mg
